Each item that follows carries a reported Activity.
Measured On: Tubulin (Bos taurus) (UniProt Q6B856+Q862L2+Q862F3)
Assay: Displacement of [3H]colchicine from bovine brain tubulin at 100 uM after 90 mins by liquid scintillation counting in presence of 10 uM [3H]colchicine
Unit cpm implied. Number only.

Please review the following examples before continuing.
1) COc1cc([C@H]2C=CC[C@@H]3C(=O)OC[C@H]32)cc(OC)c1OC; 11500
2) O=C1OC[C@H]2CC=C[C@H](c3ccc4c(c3)OCO4)[C@@H]12; 12400
3) O=C1OC[C@H]2[C@@H]1CC=C[C@@H]2c1ccc2c(c1)OCO2; 17000

Given item `O=C1OC[C@H]2CC=CC[C@H]12` , the value recorded as its Activity is 14700

The compound listed as `O=C1OC[C@H]2CC=CC[C@@H]12` has a reported Activity of 14100

Measured Activity of COc1cc([C@H]2C=CC[C@@H]3COC(=O)[C@H]32)cc(OC)c1OC (relative stereo) : 15200

The value of Activity measured for the compound `O=C1OC[C@H]2CC=C[C@H](c3ccc4c(c3)OCO4)[C@H]12` turned out to be 19600
